- Test system: Mus musculus
- PROTOCOL_DESCRIPTION: Inhibition of FAAH in C57Bl/6J mouse brain assessed as increase of anandamide level at 30 mg/kg, ip after 1 hr relative to control
- Assay type: functional
- MEASUREMENT_SETUP: route intraperitoneal
MEASUREMENT_LABEL: fold change (FC)
Form field (numeric): enter value without unit.

Example compounds with recorded fold change (FC):
>>> measured_result("O=C(c1ncc(-c2ccccn2)o1)C1Cc2ccc(Oc3ccccc3)cc2C1 (stereo not given)")
3
>>> measured_result("O=C(CCCCCCc1ccccc1)c1ncc(-c2ccccn2)o1")
3.3
>>> measured_result("O=C(O)c1cccc(-c2cnc(C(=O)C3Cc4ccc(Oc5ccccc5)cc4C3)o2)n1 (stereo not given)")
1
>>> measured_result("O=C(O)c1cccc(-c2cnc(C(=O)[C@H]3CCc4cc(Oc5ccccc5)ccc4C3)o2)n1")
1.5

From here, focus on the item given below.
I'd like to know its fold change (FC). The compound in question is `O=C(c1ncc(-c2ccccn2)o1)[C@H]1CCc2cc(Oc3ccccc3)ccc2C1`
5.1

Every entry's value here was drawn from ChEMBL document CHEMBL1765010.
